test: Inhibition of reverse transcriptase K103N mutant in HIV-1 3B infected in human MT4 cells assessed as reduction in virus-induced cytopathic effect incubated for 5 days by MTT assay
Exercise: for every item that follows, state its recorded pEC50.
In textbook form, pEC50 equals minus log to base ten of the concentration in mol/L.

The compound N#Cc1ccc(Nc2nccc([C@H](O)c3ccc(-c4ccc(C#N)cc4)cc3Cl)n2)cc1 showed pEC50 equal to 6.60

Looking up N#Cc1ccc(Nc2nccc([C@@H](O)c3ccc(-c4ccc(C#N)cc4)cc3Cl)n2)cc1 , I see its pEC50 listed as 8.49

pEC50 for N#Cc1ccc(Nc2nccc(C(O)c3ccc(-c4ccc(C#N)cc4)cc3Cl)n2)cc1 (stereo unspecified) is 8.23

Summary for this compound, N#Cc1ccc(Nc2nccc([C@@H](O)c3c(F)cc(-c4ccc(C#N)cc4)cc3F)n2)cc1 : pEC50 is 7.44

// N#Cc1ccc(Nc2nccc(C(O)c3c(F)cc(-c4ccc(C#N)cc4)cc3F)n2)cc1 (stereo unspecified) : pEC50 value = 7.21

Field pEC50 (entry N#Cc1ccc(Nc2nccc([C@@H](O)c3ccc(-c4ccc(C#N)cc4)cc3F)n2)cc1 ) reads 7.30

For reference, reported pEC50 for Cc1cc(-c2ccc(C#N)cc2)cc(C)c1C(O)c1ccnc(Nc2ccc(C#N)cc2)n1 (stereo unspecified) stands at 8.15

Form field pEC50, entry Cc1cc(-c2ccc(C#N)cc2)cc(C)c1[C@H](O)c1ccnc(Nc2ccc(C#N)cc2)n1 : 8.41

Value of pEC50 reported for the compound N#Cc1ccc(Nc2nccc([C@H](O)c3c(F)cc(-c4ccc(C#N)cc4)cc3F)n2)cc1 is 6.44

According to the records, this compound Cc1cc(-c2ccc(C#N)cc2)ccc1[C@H](O)c1ccnc(Nc2ccc(C#N)cc2)n1 displays pEC50 of 8.07

Just so you know, measured pEC50 for COc1cc(-c2ccc(C#N)cc2)ccc1[C@@H](O)c1ccnc(Nc2ccc(C#N)cc2)n1 came out at 6.36

----------
experiment: Inhibition of reverse transcriptase Y181C mutant in HIV-1 3B infected in human MT4 cells assessed as reduction in virus-induced cytopathic effect incubated for 5 days by MTT assay
VALUE KIND: pEC50
Field pEC50 (float): negative decimal logarithm of the concentration in molar.

Field pEC50 (entry COc1cc(-c2ccc(C#N)cc2)ccc1[C@@H](O)c1ccnc(Nc2ccc(C#N)cc2)n1 ) reads 6.29

Lookup result for N#Cc1ccc(Nc2nccc(C(O)c3ccc(-c4ccc(C#N)cc4)cc3C(F)(F)F)n2)cc1 (stereo unspecified) ; measured pEC50: 7.23

The recorded pEC50 for N#Cc1ccc(Nc2nccc([C@H](O)c3ccc(-c4ccc(C#N)cc4)cc3Cl)n2)cc1 is 6.10

Reported pEC50 for N#Cc1ccc(Nc2nccc([C@@H](O)c3ccc(-c4ccc(C#N)cc4)cc3Cl)n2)cc1 was 7.85

# compound N#Cc1ccc(Nc2nccc([C@H](O)c3c(F)cc(-c4ccc(C#N)cc4)cc3F)n2)cc1 ; its pEC50 = 6.36

Item: Cc1cc(-c2ccc(C#N)cc2)cc(C)c1[C@@H](O)c1ccnc(Nc2ccc(C#N)cc2)n1 | pEC50: 7.34

Kindly note the recorded pEC50 for COc1cc(-c2ccc(C#N)cc2)ccc1[C@H](O)c1ccnc(Nc2ccc(C#N)cc2)n1 , which is 7.82

// pEC50 value for Cc1cc(-c2ccc(C#N)cc2)cc(C)c1[C@H](O)c1ccnc(Nc2ccc(C#N)cc2)n1 : 8.13

For this compound ( N#Cc1ccc(Nc2nccc([C@@H](O)c3ccc(-c4ccc(C#N)cc4)cc3C(F)(F)F)n2)cc1 ), measured pEC50 is 7.52

The compound listed as COc1cc(-c2ccc(C#N)cc2)ccc1C(O)c1ccnc(Nc2ccc(C#N)cc2)n1 (stereo unspecified) has a reported pEC50 of 7.49

Record Cc1cc(-c2ccc(C#N)cc2)ccc1[C@@H](O)c1ccnc(Nc2ccc(C#N)cc2)n1 . Reported pEC50: 6.13

The measured pEC50 associated with N#Cc1ccc(Nc2nccc([C@@H](O)c3c(F)cc(-c4ccc(C#N)cc4)cc3F)n2)cc1 reads 7.05

Value of measured pEC50 for the entry N#Cc1ccc(Nc2nccc(C(O)c3ccc(-c4ccc(C#N)cc4)cc3F)n2)cc1 (stereo unspecified) : 6.95

Just so you know, measured pEC50 for Cc1cc(-c2ccc(C#N)cc2)ccc1C(O)c1ccnc(Nc2ccc(C#N)cc2)n1 (stereo unspecified) came out at 7.51

Reported pEC50 for N#Cc1ccc(Nc2nccc(C(O)c3c(F)cc(-c4ccc(C#N)cc4)cc3F)n2)cc1 (stereo unspecified) was 6.90

Notebook: Cc1cc(-c2ccc(C#N)cc2)cc(C)c1C(O)c1ccnc(Nc2ccc(C#N)cc2)n1 (stereo unspecified) , pEC50 read as 7.64

N#Cc1ccc(Nc2nccc([C@@H](O)c3ccc(-c4ccc(C#N)cc4)cc3F)n2)cc1 yielded pEC50 of 7.11

Please fill in: pEC50 reported for N#Cc1ccc(Nc2nccc([C@H](O)c3ccc(-c4ccc(C#N)cc4)cc3C(F)(F)F)n2)cc1 = 5.74

Notebook: Cc1cc(-c2ccc(C#N)cc2)ccc1[C@H](O)c1ccnc(Nc2ccc(C#N)cc2)n1 , pEC50 read as 7.72

Notebook: N#Cc1ccc(Nc2nccc(C(O)c3ccc(-c4ccc(C#N)cc4)cc3Cl)n2)cc1 (stereo unspecified) , pEC50 read as 7.85

Looking up N#Cc1ccc(Nc2nccc([C@H](O)c3ccc(-c4ccc(C#N)cc4)cc3F)n2)cc1 , I see its pEC50 listed as 5.93

----------
assay: Inhibition of reverse transcriptase Y188L mutant in HIV-1 3B infected in human MT4 cells assessed as reduction in virus-induced cytopathic effect incubated for 5 days by MTT assay
pEC50: −log10 of the molar value.
We use 6 as the dividing line for pEC50: on or above the line is met, below is not met.

Check this molecule for pEC50 at or above 6: COc1cc(-c2ccc(C#N)cc2)ccc1[C@H](O)c1ccnc(Nc2ccc(C#N)cc2)n1
met

Item Cc1cc(-c2ccc(C#N)cc2)ccc1C(O)c1ccnc(Nc2ccc(C#N)cc2)n1 (stereo not given) with pEC50 of 6 or above?
met

pEC50 >= 6 for Cc1cc(-c2ccc(C#N)cc2)cc(C)c1C(O)c1ccnc(Nc2ccc(C#N)cc2)n1 (stereo not given) ?
met

Record Cc1cc(-c2ccc(C#N)cc2)ccc1[C@H](O)c1ccnc(Nc2ccc(C#N)cc2)n1 ; criterion: pEC50 no lower than 6. Met?
met

Could you please find out whether N#Cc1ccc(Nc2nccc([C@@H](O)c3ccc(-c4ccc(C#N)cc4)cc3Cl)n2)cc1 has pEC50 that meets 6 or exceeds it?
met

Can N#Cc1ccc(Nc2nccc(C(O)c3ccc(-c4ccc(C#N)cc4)cc3C(F)(F)F)n2)cc1 (stereo not given) be said to have pEC50 at or above 6?
met

In plain terms: is recorded pEC50 at least 6 for N#Cc1ccc(Nc2nccc([C@H](O)c3c(F)cc(-c4ccc(C#N)cc4)cc3F)n2)cc1 ?
not met

Exam item: decide whether the reported pEC50 for N#Cc1ccc(Nc2nccc(C(O)c3c(F)cc(-c4ccc(C#N)cc4)cc3F)n2)cc1 (stereo not given) is at least 6.
not met

Hi, just wondering whether N#Cc1ccc(Nc2nccc([C@@H](O)c3ccc(-c4ccc(C#N)cc4)cc3C(F)(F)F)n2)cc1 shows pEC50 of 6 or higher.
met

Test whether the molecule N#Cc1ccc(Nc2nccc(C(O)c3ccc(-c4ccc(C#N)cc4)cc3Cl)n2)cc1 (stereo not given) records pEC50 of 6 or higher.
met

----------
assay: Inhibition of reverse transcriptase L100I mutant in HIV-1 3B infected in human MT4 cells assessed as reduction in virus-induced cytopathic effect incubated for 5 days by MTT assay
Exercise: for every item that follows, state its recorded pEC50.
As a rule, pEC50 stands for the negative log10 of the concentration, concentration in M.

COc1cc(-c2ccc(C#N)cc2)ccc1[C@@H](O)c1ccnc(Nc2ccc(C#N)cc2)n1 yielded pEC50 of 5.90

pEC50 recorded for this compound, N#Cc1ccc(Nc2nccc([C@H](O)c3ccc(-c4ccc(C#N)cc4)cc3F)n2)cc1 , is 5.44

The compound identified as N#Cc1ccc(Nc2nccc(C(O)c3ccc(-c4ccc(C#N)cc4)cc3C(F)(F)F)n2)cc1 (centres undefined) registered its pEC50 at 6.67

Entry N#Cc1ccc(Nc2nccc(C(O)c3ccc(-c4ccc(C#N)cc4)cc3Cl)n2)cc1 (centres undefined) — recorded pEC50 = 7.04

pEC50 for Cc1cc(-c2ccc(C#N)cc2)cc(C)c1[C@H](O)c1ccnc(Nc2ccc(C#N)cc2)n1 is 7.70

Cc1cc(-c2ccc(C#N)cc2)ccc1[C@H](O)c1ccnc(Nc2ccc(C#N)cc2)n1 yielded pEC50 of 7.09

The recorded pEC50 for entry N#Cc1ccc(Nc2nccc(C(O)c3ccc(-c4ccc(C#N)cc4)cc3F)n2)cc1 (centres undefined) equals 6.04

pEC50 recorded for this compound, N#Cc1ccc(Nc2nccc([C@@H](O)c3c(F)cc(-c4ccc(C#N)cc4)cc3F)n2)cc1 , is 6.47

The measured pEC50 associated with N#Cc1ccc(Nc2nccc([C@H](O)c3ccc(-c4ccc(C#N)cc4)cc3C(F)(F)F)n2)cc1 reads 5.76
